Molecular target: T1, Nluc-IL23R fusion protein (human, UniProt Q5VWK5 22-629)
T1 construct: range 22-629; expressed with a secretion signal in HEK293 cells; used as crude membrane preparation; also called hIL-23R; human IL-23R; not shown: Nanoluc protein from the expression plasmid N1371 (Promega), N-terminal of IL-23R
T1 sequence (looked up): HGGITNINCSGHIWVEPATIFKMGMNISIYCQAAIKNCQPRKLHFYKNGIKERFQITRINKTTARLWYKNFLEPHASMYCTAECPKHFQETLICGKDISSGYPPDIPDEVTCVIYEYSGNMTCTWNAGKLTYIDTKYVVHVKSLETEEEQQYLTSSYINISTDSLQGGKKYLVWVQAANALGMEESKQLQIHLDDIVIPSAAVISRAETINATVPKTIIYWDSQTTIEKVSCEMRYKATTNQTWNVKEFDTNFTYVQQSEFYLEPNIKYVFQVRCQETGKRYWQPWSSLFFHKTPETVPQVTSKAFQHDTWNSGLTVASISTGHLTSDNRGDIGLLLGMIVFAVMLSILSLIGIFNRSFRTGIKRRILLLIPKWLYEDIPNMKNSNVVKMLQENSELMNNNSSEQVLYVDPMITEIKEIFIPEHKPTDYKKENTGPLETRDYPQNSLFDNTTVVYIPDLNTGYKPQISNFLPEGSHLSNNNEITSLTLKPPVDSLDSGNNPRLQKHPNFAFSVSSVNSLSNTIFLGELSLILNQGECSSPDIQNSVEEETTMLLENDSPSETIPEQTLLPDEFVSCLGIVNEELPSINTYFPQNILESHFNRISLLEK
Test: BRET competition vs TAMRA-labelled peptide, Nluc-IL23R membranes
*1 amine or outer side, *2 acyl side, *3 side chain or, on linkers, in order; H or OH if unused. Bridges are numbered along the chain shown (N, C = ends). [ ]: non-standard residue; d: D form. 4‑Aminomethyl‑phenylacetyl = 4-aminomethyl-phenylacetyl unit, its amine closes the lactam, O=C(Cc1ccc(CN[*:1])cc1)[*:2]; 2Nal = N[C@@H](Cc1ccc2ccccc2c1)C(=O)O; AEF = NCCOc1ccc(C[C@H](N)C(=O)O)cc1; αMeL = CC(C)C[C@](C)(N)C(=O)O
Measured IC50 of individual entries
Answer format: numeric, nM implied, no suffix.

{"columns": ["Binder", "Value kind", "Readout units", "Meas value"],
 "data": [
  ["XQTWQCYWXENG ([Ac]-[Abu](16i)QTWQC(16i)[Y(2-aminoethoxy)]W[2-Me-Lys]ENG-[NH2]; (16i) [2,7] thioether bridge (cystathionine); N-terminal acetyl, C-terminal amide, Y = Y(2-aminoethoxy)) [Compound C]", "IC50", "nM", 2.6],
  ["H-DESCWQCWWLKR-NH2 (lactam 2-11; bridge 4-7; not fully specified (bridges)) [Ref 4]", "IC50", "nM", 180],
  ["H-GCTCWECWWLCS-NH2 (bridge 4-7, 2-11; not fully specified (bridges), compound from Heinis et al., 2020, synthesised for comparison) [I1 (isomer 3)]", "IC50", "nM", 130],
  ["[4‑Aminomethyl‑phenylacetyl]SCWQC[AEF][2Nal][αMeL]E[dR]-NH2 (lactam N-10; bridge 3-6; not fully specified (bridges); printed as [4-Aminomethyl-phenylacetyl](1c)*SC(2a)WQC(2a)[Y(2-aminoethoxy)][2-Nal][2-Me-Leu]E(1c)[{d}R]-[NH2], Y = Y(2-aminoethoxy), R = D-Arg) [Ref 80]", "IC50", "nM", 0.18]
]}

Let's switch to this binder now.
[ask] Reported IC50, binder [4‑Aminomethyl‑phenylacetyl]SCWQC[AEF][2Nal][αMeL]ER-NH2 (lactam N-10; bridge 3-6; not fully specified (bridges); printed as [4-Aminomethyl-phenylacetyl](1c)*SC(2a)WQC(2a)[Y(2-aminoethoxy)][2-Nal][2-Me-Leu]E(1c)R-[NH2], Y = Y(2-aminoethoxy)) [Ref 52] : ____
[reply] 0.058
